tested on: A549; assay: Antiproliferative activity against human A549 cells after 72 hrs by Alamarblue assay relative to control; settings: A549, 72 h
experimental_readout: pIC50
FYI, pIC50 means -log10 of a concentration in mol per litre.

Ask: // pIC50 lookup, key: C[C@@H](Oc1cc(-c2cnn(C3CCNCC3)c2)cnc1N)c1c(Cl)ccc(F)c1Cl [CRIZOTINIB]
Reply: 6.87

====

Below: a set of entries, each annotated with reported pIC50.
test system: COLO 205; test: Antiproliferative activity against human COLO205 cells after 72 hrs by Alamarblue assay; assay type: functional, cell-based; conditions: COLO 205, 72 h
Convention used: pIC50 is expressed as -log10 of the molar concentration.

Ask: Value lookup for pIC50; key = `COc1ccc2c(OCc3nnc4sc(-c5cc6ccccc6[nH]5)nn34)ccnc2c1`
Reply: 5.65

Ask: I am curious: what pIC50 value has been reported for `C[C@@H](Oc1cc(-c2cnn(C3CCNCC3)c2)cnc1N)c1c(Cl)ccc(F)c1Cl` ?
Reply: 5.61
